System: Mus musculus
assay_notes: Anticonvulsant activity in ip dosed mouse assessed as compound concentration causing protection against subcutaneous pentylenetetrazol-induced seizures in half or more test animals after 0.5 hrs
Format: functional
condition_set: read-out: MED
Item-by-item account of minimal effective dose

[
  {
    "molecule": "COc1ccc2nc(NC(=O)CCC(=O)c3ccccc3)sc2c1",
    "unit_tag": "mg/kg",
    "minimal effective dose": 100
  },
  {
    "molecule": "Cc1ccc2nc(NC(=O)CCC(=O)c3ccccc3)sc2c1",
    "unit_tag": "mg/kg",
    "minimal effective dose": 300
  },
  {
    "molecule": "Cc1ccc2nc(NC(=O)c3ccccc3C(=O)c3ccccc3)sc2c1",
    "unit_tag": "mg/kg",
    "minimal effective dose": 300
  },
  {
    "molecule": "COc1ccc2nc(NC(=O)c3ccccc3C(=O)c3ccccc3)sc2c1",
    "unit_tag": "mg/kg",
    "minimal effective dose": 300
  },
  {
    "molecule": "O=C(CCC(=O)c1ccccc1)Nc1nc2ccc(Cl)cc2s1",
    "unit_tag": "mg/kg",
    "minimal effective dose": 300
  },
  {
    "molecule": "NC(=O)N1c2ccccc2C=Cc2ccccc21 [CARBAMAZEPINE]",
    "unit_tag": "mg/kg",
    "minimal effective dose": 100
  }
]

###

Test system: Mus musculus
assay_notes: CNS depressant activity in mouse assessed as immobility time at 100 mg/kg, ip measured 60 mins post dose by porsolt's swimming pool test
Type: organism-based
Design: dose 100 mg/kg, route intraperitoneal
condition_set: in vivo, 1 h
Entries and their Time

[
  {
    "compound": "O=C(Nc1nc2ccc(F)cc2s1)c1ccccc1C(=O)c1ccccc1",
    "unit_tag": "s",
    "Time": 147.3
  },
  {
    "compound": "O=C(CCC(=O)c1ccccc1)Nc1nc2ccc([N+](=O)[O-])cc2s1",
    "unit_tag": "s",
    "Time": 166.1
  },
  {
    "compound": "Cc1ccc2nc(NC(=O)CCC(=O)c3ccccc3)sc2c1",
    "unit_tag": "s",
    "Time": 130
  },
  {
    "compound": "NC(=O)N1c2ccccc2C=Cc2ccccc21 [CARBAMAZEPINE]",
    "unit_tag": "s",
    "Time": 179.5
  },
  {
    "compound": "O=C(CCC(=O)c1ccccc1)Nc1nc2cc(Cl)c(F)cc2s1",
    "unit_tag": "s",
    "Time": 146.6
  },
  {
    "compound": "O=C(CCC(=O)c1ccccc1)Nc1nc2ccc(Cl)cc2s1",
    "unit_tag": "s",
    "Time": 134.5
  }
]

###

System: Mus musculus
assay_notes: Anticonvulsant activity in mouse assessed as protection against maximal electroshock-induced seizures at 300 mg/kg, ip after 0.5 hrs
Type: functional, organism-based
Design: dose 300 mg/kg
Activity calls are given as the source filed them. The rule behind the calls is not given here.

[
  {
    "smiles_text": "O=C(CCC(=O)c1ccccc1)Nc1nc2ccc(Br)cc2s1",
    "Activity": "inactive"
  },
  {
    "smiles_text": "CC(=O)c1ccc2nc(NC(=O)CCC(=O)c3ccccc3)sc2c1",
    "Activity": "inactive"
  },
  {
    "smiles_text": "CC(=O)c1ccc2nc(NC(=O)c3ccccc3C(=O)c3ccccc3)sc2c1",
    "Activity": "inactive"
  },
  {
    "smiles_text": "O=C(Nc1nc2ccc(F)cc2s1)c1ccccc1C(=O)c1ccccc1",
    "Activity": "inactive"
  },
  {
    "smiles_text": "COc1ccc2nc(NC(=O)c3ccccc3C(=O)c3ccccc3)sc2c1",
    "Activity": "inactive"
  },
  {
    "smiles_text": "O=C(Nc1nc2ccc(Cl)cc2s1)c1ccccc1C(=O)c1ccccc1",
    "Activity": "inactive"
  },
  {
    "smiles_text": "O=C(CCC(=O)c1ccccc1)Nc1nc2ccc(F)cc2s1",
    "Activity": "inactive"
  }
]
